assay: Intrinsic clearance in human liver microsomes; format: ADME, Microsome; details: read-out: CLH
Decision: predicted hepatic clearance beneath 10 mL/min/kg gives criterion met; predicted hepatic clearance meeting or exceeding 10 mL/min/kg gives criterion not met.

Examples with answers:
>  <molecule>
Cc1noc2c1-c1ccccc1C(c1ccccc1)=N[C@H]2CC(N)=O

>  <group>
criterion met

$$$$
>  <molecule>
COc1ccc2c(c1)C(c1ccc(Cl)cc1)=N[C@@H](CC(N)=O)c1onc(C)c1-2

>  <group>
criterion met

$$$$
>  <molecule>
COc1ccc(C2=N[C@@H](CC(N)=O)c3onc(C)c3-c3ccccc32)cc1

>  <group>
criterion met

$$$$
>  <molecule>
Cc1noc2c1-c1ccccc1C(c1ccc(Cl)cc1)=N[C@H]2CC(N)C(F)(F)F (some centres undefined)

>  <group>
criterion not met

$$$$
>  <molecule>
Cc1ccc(C2=N[C@@H](CC(N)=O)c3onc(C)c3-c3ccccc32)cc1

>  <group>
criterion not met

$$$$

Lookup: Criterion: predicted hepatic clearance strictly below 10 mL/min/kg. Is it met by Cc1noc2c1-c1ccccc1C(c1ccc(Cl)cc1)=NC2 ?
Found: criterion not met

Lookup: Here is the next molecule: Cc1noc2c1-c1ccccc1C(c1ccc(C#N)cc1)=N[C@H]2CC(N)=O
Found: criterion met

Lookup: Here is the next molecule: Cc1noc2c1-c1ccc(-c3ccc(N)nc3)cc1C(c1ccc(Cl)cc1)=N[C@H]2CC(N)=O
Found: criterion not met

* * *

test: Protein binding in human plasma; type: ADME, cell-free; conditions: read-out: PPB (converted)
metric: fraction unbound
# answer = number (no unit)

Below: 2 compounds and their reported fraction unbound.
>  <compound>
Cc1noc2c1-c1ccccc1C(c1ccc(Cl)cc1)=NC2C(N)=O (stereo not drawn)

>  <fraction unbound>
0.02

$$$$
>  <compound>
Cc1cccc2c1C(c1ccc(Cl)cc1)=N[C@@H](CC(N)=O)c1onc(C)c1-2

>  <fraction unbound>
0.02

$$$$

Lookup: Given CCNC(=O)C[C@@H]1N=C(c2ccc(Cl)cc2)c2ccccc2-c2c(C)noc21 , state its recorded fraction unbound.
Found: 0.02
